Data provenance: the supplement of paper PMC11451515

# System: P12-Ichikawa
# EXPERIMENT NOTES: cell viability relative to DMSO control; higher = less cytotoxic
# PARTICULARS: HPLM + 10% dialyzed FBS; 48 h; 5.12 µM
Would you kindly list cell viability for each of these compounds?

State its cell viability for this compound: `O=C(NCCCNc1nc(Nc2cccc(NC(=O)N3CCCC3)c2)ncc1I)c1cccs1`
84.9%

State its cell viability for this compound: `Cc1ccc(NC(=O)Nc2cc(C(F)(F)F)ccc2F)cc1Nc1ccc2c(c1)NC(=O)/C2=C\c1ccc[nH]1`
128%

State its cell viability for this compound: `C[C@H](NC(=O)Cc1cc(F)cc(F)c1)C(=O)N[C@@H]1C(=O)N(C)c2ccccc2-c2ccccc21`
6.06%

---

# Test system: P12-Ichikawa
# EXPERIMENT NOTES: cell viability relative to DMSO control; higher = less cytotoxic
# PARTICULARS: HPLM + 10% dialyzed FBS; 48 h; 0.0632 µM
Would you kindly list cell viability for each of these compounds?
Give the quantity in %, number only.

State its cell viability for this compound: COc1nccc(-c2c(-c3ccc(F)cc3)ncn2C2CCC(O)CC2)n1 (stereo not drawn)
118

State its cell viability for this compound: `CN1/C=C(\N=C(NC2=CC=C(C=C2)C(=O)N3CCOCC3)/C1=O)/C4=C(C)C(=CC=C4)NC(=O)C5=CC=C(C=C5)C(C)(C)C`
104

State its cell viability for this compound: `CCCOc1ccc2[nH]c(NC(=O)OC)nc2c1`
54.5

State its cell viability for this compound: `O=[N+]([O-])c1ccc(Nc2ccccc2-c2ccccc2)c2nonc12`
85.1

State its cell viability for this compound: `O=C(C[C@@H]1C/C=C\CCC(=O)O[C@H](c2ccccc2)CNC1=O)NCc1ccc(Cl)cc1`
126

State its cell viability for this compound: CC(Cc1ccc(O)c(O)c1)(NN)C(=O)O (stereo not drawn)
130

State its cell viability for this compound: NC1CCC(Nc2nc(Nc3ccc(C(=O)N4CCCCC4)cc3)c3ncn(-c4cccc(F)c4)c3n2)CC1 (stereo not drawn)
112

State its cell viability for this compound: `CN(C)CC[C@H](CSc1ccccc1)Nc1ccc([S+](=O)([O-])NC(=O)c2ccc(N3CCN(Cc4ccccc4-c4ccc(Cl)cc4)CC3)cc2)cc1[N+](=O)[O-]`
115

---

# Test system: NOMO1
# EXPERIMENT NOTES: cell viability relative to DMSO control; higher = less cytotoxic
# PARTICULARS: RPMI 5 mM glucose + 10% FBS; 48 h; 0.00234 µM
READOUT KIND: cell viability (%)
Give the quantity in %, number only.

State its cell viability for this molecule: `O=[S+]([O-])(/N=C/c1c(O)ccc2ccccc12)c1cccs1`
126

State its cell viability for this molecule: `CCN1\C=C(C(O)=O)/C(=O)C2=C1C=C(N3CCN(C)CC3)C(=C2)F`
104

State its cell viability for this molecule: `CCCOc1ccc2[nH]c(NC(=O)OC)nc2c1`
116

State its cell viability for this molecule: NC1CCC(Nc2nc(Nc3ccc(C(=O)N4CCCCC4)cc3)c3ncn(-c4cccc(F)c4)c3n2)CC1 (centres undefined)
113

State its cell viability for this molecule: `CCCC1=N[N](C)C2=C1\N=C(/NC2=O)C3=CC(=CC=C3OCC)[S+]([O-])(=O)N4CCN(C)CC4`
92.9

State its cell viability for this molecule: `O=C(O)c1ccc(-c2c[nH]c3ncc(-c4ccccc4)cc23)cc1C1CCCC1`
108

State its cell viability for this molecule: `CC1(C)Cc2c(sc(NC(=S)NC(=O)c3ccccc3)c2C(=O)O)CO1`
111

State its cell viability for this molecule: `COc1cc(Nc2ncc(F)c(Nc3ccc4c(n3)N(COP(=O)(O)O)C(=O)C(C)(C)O4)n2)cc(OC)c1OC`
90.2

State its cell viability for this molecule: `Cn1c(=O)c2[nH]cnc2n(C)c1=O`
103
